Recorded values, source patent US5840684A.

Quick list: MIC per entry.
Tested on: Haemophilus influenzae RD
Test: broth micro-dilution MIC
Format: cell-based
Conditions: Haemophilus influenzae RD

Worked examples, 2 molecules total:
| Molecule | System | Result |
| --- | --- | --- |
| CNC(CC(C)C)C(=O)NC1C(=O)NC(CC(N)=O)C(=O)NC2C(=O)NC3C(=O)NC(C(=O)NC(C(=O)O)c4cc(O)cc(O)c4-c4cc3ccc4O)C(OC3CC(C)(N)C(O)C(C)O3)c3ccc(c(Cl)c3)Oc3cc2cc(c3OC2OC(CO)C(O)C(O)C2OC2CC(C)(NCc3ccc(Oc4ccc(Cl)c(Cl)c4)cc3)C(O)C(C)O2)Oc2ccc(cc2Cl)C1O (stereo not drawn) [Compound 81] | Haemophilus influenzae RD | 16 µg/mL |
| COc1ccc2ccccc2c1CNC1(C)CC(OC2C(Oc3c4cc5cc3Oc3ccc(cc3Cl)C(OC3CC(C)(N)C(O)C(C)O3)C3NC(=O)C(NC(=O)C5NC(=O)C(CC(N)=O)NC(=O)C(NC(=O)C(CC(C)C)N(C)Cc5c(OC)ccc6ccccc56)C(O)c5ccc(c(Cl)c5)O4)c4ccc(O)c(c4)-c4c(O)cc(O)cc4C(C(=O)O)NC3=O)OC(CO)C(O)C2O)OC(C)C1O (stereo not drawn) [Compound 282] | Haemophilus influenzae RD | > 64 µg/mL |

# input for lookup
q: Form field: reported MIC of CC(C)CC(C(=O)NC1C(=O)NC(CC(N)=O)C(=O)NC2C(=O)NC3C(=O)NC(C(=O)NC(C(=O)O)c4cc(O)cc(O)c4-c4cc3ccc4O)C(OC3CC(C)(N)C(O)C(C)O3)c3ccc(c(Cl)c3)Oc3cc2cc(c3OC2OC(CO)C(O)C(O)C2OC2CC(C)(N)C(O)C(C)O2)Oc2ccc(cc2Cl)C1O)N(C)Cc1ccc(-c2ccc(Cl)cc2)cc1.O=C(O)C(F)(F)F (stereo not drawn) [Compound 252]
a: > 64 µg/mL
